The values you see were collected from ChEMBL document CHEMBL3259704.

- tested target: Botulinum neurotoxin type A (Clostridium botulinum, UniProt P0DPI0)
- Sequence (P0DPI0 2-448 limits assumed): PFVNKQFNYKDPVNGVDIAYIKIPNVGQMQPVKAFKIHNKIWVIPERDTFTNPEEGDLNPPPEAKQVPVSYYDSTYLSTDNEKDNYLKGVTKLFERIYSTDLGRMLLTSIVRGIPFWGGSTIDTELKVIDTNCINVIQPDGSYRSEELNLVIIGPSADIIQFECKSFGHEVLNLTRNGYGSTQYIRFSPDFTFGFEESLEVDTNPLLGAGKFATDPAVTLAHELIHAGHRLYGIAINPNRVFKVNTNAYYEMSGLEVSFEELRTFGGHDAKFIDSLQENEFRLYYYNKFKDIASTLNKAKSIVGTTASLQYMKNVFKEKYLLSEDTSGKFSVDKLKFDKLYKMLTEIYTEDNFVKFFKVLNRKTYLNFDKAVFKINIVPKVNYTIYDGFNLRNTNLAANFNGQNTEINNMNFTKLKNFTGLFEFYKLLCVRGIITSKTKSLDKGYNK
- assay details: Inhibition of Clostridium botulinum recombinant BoNT/A light chain using N-terminal acetylated, C-terminal aminated SNAP-25 (187-203) as substrate by reverse-phase HPLC analysis
measurement label: pIC50
In simple prose, pIC50 is minus the logarithm base ten of a concentration in moles per litre.

The cases that follow already have their pIC50 on record.
[[record]]
test_smiles = "CC(=O)O[C@H]1C[C@H]2[C@@H]([C@H](OC(C)=O)C[C@@H]3C[C@H](N)CC[C@@]32C)[C@@H]2CC[C@H]([C@H](C)CCCN(CCC[C@@H](C)[C@H]3CC[C@H]4[C@@H]5[C@H](OC(C)=O)C[C@@H]6C[C@H](N)CC[C@]6(C)[C@H]5C[C@H](OC(C)=O)[C@]34C)CCNc3ccnc4cc(Cl)ccc34)[C@@]12C"
recorded_value = 5.52

[[record]]
test_smiles = "CC(=O)O[C@@H]1CC[C@@]2(C)[C@@H](C1)C[C@@H](OC(C)=O)[C@@H]1[C@@H]2C[C@H](OC(C)=O)[C@]2(C)[C@@H]([C@H](C)CCCN(C)CCCNc3ccnc4cc(Cl)ccc34)CC[C@@H]12"
recorded_value = 5.35


Enquiry: Look up pIC50: CC(=O)O[C@H]1C[C@H]2[C@@H]([C@H](OC(C)=O)C[C@@H]3C[C@H](NC(=O)OC(C)(C)C)CC[C@@]32C)[C@@H]2CC[C@H]([C@H](C)CCCNCCNc3ccnc4cc(Cl)ccc34)[C@@]12C
Return: 5.31

Enquiry: Next molecule: CC(=O)N[C@@H]1CC[C@@]2(C)[C@@H](C1)C[C@@H](OC(C)=O)[C@@H]1[C@@H]2C[C@H](OC(C)=O)[C@]2(C)[C@@H]([C@H](C)CCCNCCNc3ccnc4cc(Cl)ccc34)CC[C@@H]12
Return: 5.61

Enquiry: Next molecule: CC(=O)O[C@H]1C[C@H]2[C@@H]([C@H](OC(C)=O)C[C@@H]3C[C@H](O)CC[C@@]32C)[C@@H]2CC[C@H]([C@H](C)CCCNCCCNc3ccnc4cc(Cl)ccc34)[C@@]12C
Return: 5.29

Enquiry: Next molecule: CC(=O)O[C@H]1C[C@H]2[C@@H]([C@H](OC(C)=O)C[C@@H]3C[C@H](O)CC[C@@]32C)[C@@H]2CC[C@H]([C@H](C)CCCNCCNc3ccnc4cc(Cl)ccc34)[C@@]12C
Return: 5.33

Enquiry: Next molecule: CC(=O)O[C@H]1C[C@H]2[C@@H]([C@H](OC(C)=O)C[C@@H]3C[C@H](N(C)C)CC[C@@]32C)[C@@H]2CC[C@H]([C@H](C)CCCN(C)CCNc3ccnc4cc(Cl)ccc34)[C@@]12C
Return: 5.64

Enquiry: Next molecule: CC(=O)O[C@H]1C[C@H]2[C@@H]([C@H](OC(C)=O)C[C@@H]3C[C@H](NS(C)(=O)=O)CC[C@@]32C)[C@@H]2CC[C@H]([C@H](C)CCCN(C)CCNc3ccnc4cc(Cl)ccc34)[C@@]12C
Return: 4.60

* * *

- assay details: Selectivity index, ratio of IC50 for human HepG2 cells to IC50 for CQ-resistant, MFQ-susceptible Plasmodium falciparum W2 clone Indochina 1 isolate
- Format: toxicity, cell-based
- experimental context: read-out: Ratio IC50
measurement label: selectivity ratio
No unit in the answer, only the number.

The cases that follow already have their selectivity ratio on record.
[[record]]
molecule = "CC(=O)O[C@H]1C[C@H]2[C@@H]([C@H](OC(C)=O)C[C@@H]3CC(=O)CC[C@@]32C)[C@@H]2CC[C@H]([C@H](C)CCCNCCCNc3ccnc4cc(Cl)ccc34)[C@@]12C"
recorded_value = 161

[[record]]
molecule = "CC(=O)O[C@H]1C[C@H]2[C@@H]([C@H](OC(C)=O)C[C@@H]3C[C@H](NS(C)(=O)=O)CC[C@@]32C)[C@@H]2CC[C@H]([C@H](C)CCCN(C)CCCNc3ccnc4cc(Cl)ccc34)[C@@]12C"
recorded_value = 93


Enquiry: Look up selectivity ratio: CC(=O)O[C@H]1C[C@H]2[C@@H]([C@H](OC(C)=O)C[C@@H]3CC(NCCCNc4ccnc5cc(Cl)ccc45)CC[C@@]32C)[C@@H]2CC[C@H]([C@H](C)CCCNCCCNc3ccnc4cc(Cl)ccc34)[C@@]12C (mixture of isomers)
Return: 43

Enquiry: Next molecule: CC(=O)O[C@H]1C[C@H]2[C@@H]([C@H](OC(C)=O)C[C@@H]3C[C@H](NS(C)(=O)=O)CC[C@@]32C)[C@@H]2CC[C@H]([C@H](C)CCCNCCCNc3ccnc4cc(Cl)ccc34)[C@@]12C
Return: 130

Enquiry: Next molecule: CC(=O)O[C@H]1C[C@H]2[C@@H]([C@H](OC(C)=O)C[C@@H]3CC(NCCNc4ccnc5cc(Cl)ccc45)CC[C@@]32C)[C@@H]2CC[C@H]([C@H](C)CCCNCCNc3ccnc4cc(Cl)ccc34)[C@@]12C (stereo partly specified)
Return: 38

Enquiry: Next molecule: CC(=O)O[C@H]1C[C@H]2[C@@H]([C@H](OC(C)=O)C[C@@H]3C[C@H](NS(C)(=O)=O)CC[C@@]32C)[C@@H]2CC[C@H]([C@H](C)CCCN(C)CCNc3ccnc4cc(Cl)ccc34)[C@@]12C
Return: 1190

Enquiry: Next molecule: CC(=O)O[C@H]1C[C@H]2[C@@H]([C@H](OC(C)=O)C[C@@H]3C[C@H](N(C)C)CC[C@@]32C)[C@@H]2CC[C@H]([C@H](C)CCCNCCCNc3ccnc4cc(Cl)ccc34)[C@@]12C
Return: 382

* * *

- Test system: Plasmodium falciparum
- assay details: Antimalarial activity against CQ-resistant, MFQ-susceptible Plasmodium falciparum W2 clone Indochina 1 isolate assessed as inhibition of parasite proliferation by MSF assay
- Format: functional, organism-based
measurement label: IC50 (nM)
// note: answer is a bare numeric in nM

Enquiry: // fetch Plasmodium falciparum IC50 for CC(=O)O[C@H]1C[C@H]2[C@@H]([C@H](OC(C)=O)C[C@@H]3C[C@H](NC(=O)OC(C)(C)C)CC[C@@]32C)[C@@H]2CC[C@H]([C@H](C)CCCNCCNc3ccnc4cc(Cl)ccc34)[C@@]12C
Return: 7.34

Enquiry: Next compound: CC(=O)O[C@H]1C[C@H]2[C@@H]([C@H](OC(C)=O)C[C@@H]3C[C@H](N)CC[C@@]32C)[C@@H]2CC[C@H]([C@H](C)CCCNCCCNc3ccnc4cc(Cl)ccc34)[C@@]12C
Return: 195

Enquiry: Next compound: CC(=O)O[C@H]1C[C@H]2[C@@H]([C@H](OC(C)=O)C[C@@H]3C[C@H](N)CC[C@@]32C)[C@@H]2CC[C@H]([C@H](C)CCCN(CCCNc3ccnc4cc(Cl)ccc34)CCC[C@@H](C)[C@H]3CC[C@H]4[C@@H]5[C@H](OC(C)=O)C[C@@H]6C[C@H](N)CC[C@]6(C)[C@H]5C[C@H](OC(C)=O)[C@]34C)[C@@]12C
Return: 218

Enquiry: Next compound: CC(=O)O[C@H]1C[C@H]2[C@@H]([C@H](OC(C)=O)C[C@@H]3C[C@H](O)CC[C@@]32C)[C@@H]2CC[C@H]([C@H](C)CCCNCCCCCCNc3ccnc4cc(Cl)ccc34)[C@@]12C
Return: 33.9

* * *

- Tested on: Plasmodium falciparum
- assay details: Antimalarial activity against CQ, MFQ-resistant Plasmodium falciparum TM91C235 clone Southeast asian isolate assessed as inhibition of parasite proliferation by MSF assay
- Assay type: functional, organism-based
Parameter IC50: see the listing below.
Please append the unit to your numeric answer.

The cases that follow already have their IC50 on record.
[[record]]
compound = "CC(=O)O[C@H]1C[C@H]2[C@@H]([C@H](OC(C)=O)C[C@@H]3C[C@H](O)CC[C@@]32C)[C@@H]2CC[C@H]([C@H](C)CCCNCCCCCCNc3ccnc4cc(Cl)ccc34)[C@@]12C"
tested_target = "Plasmodium falciparum"
measurement_label = "IC50"
recorded_value = "40.6 nM"

[[record]]
compound = "CC(=O)O[C@H]1C[C@H]2[C@@H]([C@H](OC(C)=O)C[C@@H]3C[C@H](NS(C)(=O)=O)CC[C@@]32C)[C@@H]2CC[C@H]([C@H](C)CCCN(C)CCCNc3ccnc4cc(Cl)ccc34)[C@@]12C"
tested_target = "Plasmodium falciparum"
measurement_label = "IC50"
recorded_value = "20.3 nM"


Enquiry: Look up IC50: CC(=O)O[C@H]1C[C@H]2[C@@H]([C@H](OC(C)=O)C[C@@H]3CC(NCCCNc4ccnc5cc(Cl)ccc45)CC[C@@]32C)[C@@H]2CC[C@H]([C@H](C)CCCNCCCNc3ccnc4cc(Cl)ccc34)[C@@]12C (mixture of isomers)
Return: 195 nM

Enquiry: Next compound: C[C@@H]1CC[C@H]2[C@@H](C)C(=O)O[C@@H]3O[C@@]4(C)CC[C@@H]1[C@]32OO4
Return: 13.4 nM

Enquiry: Next compound: CC(=O)O[C@H]1C[C@H]2[C@@H]([C@H](OC(C)=O)C[C@@H]3C[C@H](N)CC[C@@]32C)[C@@H]2CC[C@H]([C@H](C)CCCN(C)CCNc3ccnc4cc(Cl)ccc34)[C@@]12C
Return: 6.18 nM
